- tested-target: Sodium channel protein type 10 subunit alpha (Rattus norvegicus)
- assay-notes: Blockade of Nav1.8 channel in rat dorsal root ganglion neurons assessed as inhibition of TTX-R current at 1 uM by whole cell patch clamp technique
- Type: tissue-based
measurement-kind: inhibition (%)

smiles_str=O=C(c1ccc(-c2ccc(Oc3ccccc3)cc2)o1)N1CCNCC1 number=56
smiles_str=CN1CCN(C(=O)c2ccc(-c3ccc(C(C)(C)C)cc3)o2)CC1 number=55
smiles_str=CN1CCN(C(=O)c2ccc(-c3ccc(Oc4ccccc4)cc3)o2)CC1 number=90
smiles_str=O=C(c1ccc(-c2ccc(Oc3ccccc3)cc2)o1)N1CCN(C2CCCCC2)CC1 number=67

----------
- tested-target: Sodium channel protein type 10 subunit alpha (Homo sapiens, UniProt Q9Y5Y9)
- Sequence (Q9Y5Y9 whole entry, looked up): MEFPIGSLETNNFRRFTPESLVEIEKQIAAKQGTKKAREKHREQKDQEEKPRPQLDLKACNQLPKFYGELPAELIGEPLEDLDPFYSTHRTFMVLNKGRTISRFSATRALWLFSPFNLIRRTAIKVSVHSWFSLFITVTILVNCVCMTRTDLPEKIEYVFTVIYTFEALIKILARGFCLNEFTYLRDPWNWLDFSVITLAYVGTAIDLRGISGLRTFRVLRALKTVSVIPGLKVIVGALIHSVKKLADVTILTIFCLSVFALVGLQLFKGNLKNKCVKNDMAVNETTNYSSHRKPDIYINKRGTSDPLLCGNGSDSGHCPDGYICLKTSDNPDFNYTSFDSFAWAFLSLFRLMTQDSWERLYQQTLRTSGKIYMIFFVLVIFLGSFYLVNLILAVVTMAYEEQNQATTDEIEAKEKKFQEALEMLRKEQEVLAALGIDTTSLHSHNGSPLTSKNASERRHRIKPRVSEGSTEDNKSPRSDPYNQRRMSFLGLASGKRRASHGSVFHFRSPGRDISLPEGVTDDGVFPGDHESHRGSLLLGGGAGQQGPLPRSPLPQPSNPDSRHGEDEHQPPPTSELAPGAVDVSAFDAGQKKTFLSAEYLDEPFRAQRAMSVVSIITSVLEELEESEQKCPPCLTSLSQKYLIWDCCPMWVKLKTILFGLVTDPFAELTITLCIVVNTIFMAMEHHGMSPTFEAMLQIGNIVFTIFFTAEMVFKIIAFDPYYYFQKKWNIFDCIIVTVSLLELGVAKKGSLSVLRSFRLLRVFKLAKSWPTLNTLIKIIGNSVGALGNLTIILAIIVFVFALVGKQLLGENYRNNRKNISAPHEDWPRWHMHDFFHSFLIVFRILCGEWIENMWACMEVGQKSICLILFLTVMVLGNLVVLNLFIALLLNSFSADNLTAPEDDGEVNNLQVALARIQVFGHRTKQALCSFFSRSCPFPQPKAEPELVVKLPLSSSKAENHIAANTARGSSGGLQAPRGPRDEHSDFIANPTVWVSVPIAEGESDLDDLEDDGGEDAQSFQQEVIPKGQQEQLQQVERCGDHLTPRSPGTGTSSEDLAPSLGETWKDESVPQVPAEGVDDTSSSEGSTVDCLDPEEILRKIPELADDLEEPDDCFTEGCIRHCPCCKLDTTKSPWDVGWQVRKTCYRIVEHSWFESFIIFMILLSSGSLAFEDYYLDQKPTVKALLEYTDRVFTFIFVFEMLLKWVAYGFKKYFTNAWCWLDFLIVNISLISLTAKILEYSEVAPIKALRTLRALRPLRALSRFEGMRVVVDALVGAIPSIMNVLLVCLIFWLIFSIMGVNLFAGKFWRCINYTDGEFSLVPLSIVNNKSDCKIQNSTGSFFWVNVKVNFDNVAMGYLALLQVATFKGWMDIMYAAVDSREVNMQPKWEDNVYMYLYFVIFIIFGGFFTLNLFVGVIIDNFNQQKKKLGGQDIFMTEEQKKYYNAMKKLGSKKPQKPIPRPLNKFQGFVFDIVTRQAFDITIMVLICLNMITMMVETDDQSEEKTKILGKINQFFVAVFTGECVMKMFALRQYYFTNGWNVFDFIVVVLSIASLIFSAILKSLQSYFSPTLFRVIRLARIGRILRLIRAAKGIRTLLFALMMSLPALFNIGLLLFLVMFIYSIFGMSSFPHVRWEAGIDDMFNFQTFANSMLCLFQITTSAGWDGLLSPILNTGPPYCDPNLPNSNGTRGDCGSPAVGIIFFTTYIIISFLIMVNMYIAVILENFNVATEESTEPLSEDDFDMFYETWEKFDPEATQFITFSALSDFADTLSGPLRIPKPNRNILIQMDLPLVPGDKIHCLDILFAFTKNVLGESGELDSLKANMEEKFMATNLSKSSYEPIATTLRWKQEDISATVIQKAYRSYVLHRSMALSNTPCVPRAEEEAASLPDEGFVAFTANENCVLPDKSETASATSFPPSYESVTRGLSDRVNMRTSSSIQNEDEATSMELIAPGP
- assay-notes: Inhibition of human recombinant Nav1.8 channel expressed in HEK293 cells at 0.3 uM by whole cell voltage clamp technique
- Format: cell-based
measurement-kind: inhibition (%)

Solved cases below.
smiles_str=O=C(c1ccc(-c2ccc(Oc3ccccc3)cc2)o1)N1CCN(C2CCCCC2)CC1 number=93
smiles_str=O=C(c1ccc(-c2ccc(Cl)cc2)o1)N1CCN(C2CCCCC2)CC1 number=58
smiles_str=CN1CCN(C(=O)c2ccc(-c3ccc(Oc4ccccc4)cc3)o2)CC1 number=87

[I] CN1CCN(C(=O)c2ccc(-c3ccc(C(C)(C)C)cc3)o2)CC1
[II] O=C(c1ccc(-c2ccc(Cl)cc2Cl)o1)N1CCN(C2CCCCC2)CC1
[III] O=C(c1ccc(-c2ccc(Cl)cc2)o1)N1CCNCC1
[IV] O=C(c1ccc(-c2ccc(OC(F)(F)F)cc2)o1)N1CCN(C2CCCCC2)CC1
Problem: Order the items by recorded inhibition; the first position goes to the largest value. Order the labels as requested and list them.
Result: IV, III, I, II

----------
- assay-notes: Plasma clearance in Sprague-Dawley rat at 10 mg/kg
- Format: ADME, organism-based
- Parameters: dose 10 mg/kg
measurement-kind: clearance (mL/min/kg)

smiles_str=Nc1nnc(-c2cccc(Cl)c2Cl)c(N)n1 measurement_kind=clearance unit_of_measure=mL/min/kg number=1

[I] O=C(c1ccc(-c2ccc(Cl)cc2)o1)N1CCN(C2CCCCC2)CC1
[II] O=C(c1ccc(-c2ccc(Cl)cc2)o1)N1CCNCC1
[III] CC(C)(C)c1ccc(-c2ccc(C(=O)N3CCN(C4CCCCC4)CC3)o2)cc1
Problem: Ascending by clearance, please: list the compounds accordingly. Order the labels as requested and list them.
Result: I, III, II
(I: 45 mL/min/kg, III: 127 mL/min/kg, II: 350 mL/min/kg)

----------
- tested-target: Sodium channel protein type 10 subunit alpha (Rattus norvegicus) (UniProt Q62968)
- Sequence (Q62968 whole entry, looked up): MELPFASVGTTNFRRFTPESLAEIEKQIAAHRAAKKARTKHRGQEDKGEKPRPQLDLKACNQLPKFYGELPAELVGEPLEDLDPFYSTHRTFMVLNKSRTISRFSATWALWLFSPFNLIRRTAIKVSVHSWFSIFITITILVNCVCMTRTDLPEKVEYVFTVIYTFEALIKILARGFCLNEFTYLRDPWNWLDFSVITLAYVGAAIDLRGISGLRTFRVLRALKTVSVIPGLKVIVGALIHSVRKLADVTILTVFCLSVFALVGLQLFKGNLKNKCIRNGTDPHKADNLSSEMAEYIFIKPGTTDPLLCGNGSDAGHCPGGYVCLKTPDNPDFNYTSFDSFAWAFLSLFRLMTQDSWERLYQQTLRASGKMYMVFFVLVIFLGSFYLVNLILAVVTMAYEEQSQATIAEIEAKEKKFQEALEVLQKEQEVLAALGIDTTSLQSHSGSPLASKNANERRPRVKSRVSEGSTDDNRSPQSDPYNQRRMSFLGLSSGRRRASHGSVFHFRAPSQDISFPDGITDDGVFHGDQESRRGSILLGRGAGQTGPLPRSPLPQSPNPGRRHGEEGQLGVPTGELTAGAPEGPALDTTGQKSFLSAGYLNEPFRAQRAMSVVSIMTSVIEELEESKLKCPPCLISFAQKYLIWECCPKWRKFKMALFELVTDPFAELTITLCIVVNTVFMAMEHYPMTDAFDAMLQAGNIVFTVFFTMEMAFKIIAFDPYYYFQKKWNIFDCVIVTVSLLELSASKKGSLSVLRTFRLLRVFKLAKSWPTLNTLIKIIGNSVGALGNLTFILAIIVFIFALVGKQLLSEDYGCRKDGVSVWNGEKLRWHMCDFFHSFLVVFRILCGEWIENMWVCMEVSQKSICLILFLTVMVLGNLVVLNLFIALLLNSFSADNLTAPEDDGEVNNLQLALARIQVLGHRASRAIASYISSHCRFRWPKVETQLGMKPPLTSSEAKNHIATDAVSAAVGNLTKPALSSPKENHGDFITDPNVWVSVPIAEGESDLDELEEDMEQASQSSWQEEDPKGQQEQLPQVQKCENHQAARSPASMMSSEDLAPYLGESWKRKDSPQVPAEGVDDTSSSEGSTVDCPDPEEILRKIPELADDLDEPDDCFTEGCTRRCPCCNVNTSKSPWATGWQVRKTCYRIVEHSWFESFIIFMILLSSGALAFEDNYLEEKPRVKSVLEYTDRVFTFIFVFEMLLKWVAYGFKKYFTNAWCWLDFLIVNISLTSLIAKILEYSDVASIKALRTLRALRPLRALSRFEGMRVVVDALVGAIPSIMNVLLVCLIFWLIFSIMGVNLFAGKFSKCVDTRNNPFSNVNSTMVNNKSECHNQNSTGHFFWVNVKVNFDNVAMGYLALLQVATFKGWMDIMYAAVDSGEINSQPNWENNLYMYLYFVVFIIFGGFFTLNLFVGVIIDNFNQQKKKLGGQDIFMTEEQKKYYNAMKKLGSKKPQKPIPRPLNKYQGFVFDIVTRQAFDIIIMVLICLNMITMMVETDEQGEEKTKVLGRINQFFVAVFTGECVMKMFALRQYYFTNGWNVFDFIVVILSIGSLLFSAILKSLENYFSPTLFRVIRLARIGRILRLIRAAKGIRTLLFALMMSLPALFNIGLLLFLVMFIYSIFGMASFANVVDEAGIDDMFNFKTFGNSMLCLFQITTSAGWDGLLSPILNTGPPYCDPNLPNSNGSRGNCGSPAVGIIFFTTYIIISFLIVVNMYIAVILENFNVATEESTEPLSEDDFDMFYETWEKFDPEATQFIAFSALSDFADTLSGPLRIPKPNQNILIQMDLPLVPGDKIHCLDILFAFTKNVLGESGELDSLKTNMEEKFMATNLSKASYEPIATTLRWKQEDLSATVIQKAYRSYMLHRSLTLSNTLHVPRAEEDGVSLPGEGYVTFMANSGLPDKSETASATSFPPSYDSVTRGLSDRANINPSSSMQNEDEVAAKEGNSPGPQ
- assay-notes: Blockade of Nav1.8 channel in rat dorsal root ganglion neurons assessed as inhibition of TTX-R current at 0.3 uM by whole cell patch clamp technique
- Assay type: tissue-based
measurement-kind: inhibition (%)

smiles_str=O=C(c1ccc(-c2ccc(Cl)cc2)o1)N1CCN(C2CCCCC2)CC1 tested_target="Sodium channel protein type 10 subunit alpha (Rattus norvegicus) (UniProt Q62968)" measurement_kind=inhibition unit_of_measure=% number=50
smiles_str=CN1CCC(NC(=O)c2ccc(-c3ccc(Cl)cc3)o2)CC1 tested_target="Sodium channel protein type 10 subunit alpha (Rattus norvegicus) (UniProt Q62968)" measurement_kind=inhibition unit_of_measure=% number=51
smiles_str=CN(C)CC(C)(C)CNC(=O)c1ccc(-c2ccc(Cl)cc2)o1 tested_target="Sodium channel protein type 10 subunit alpha (Rattus norvegicus) (UniProt Q62968)" measurement_kind=inhibition unit_of_measure=% number=65
smiles_str=O=C(NCCCN1CCCCC1)c1ccc(-c2ccc(Cl)cc2)o1 tested_target="Sodium channel protein type 10 subunit alpha (Rattus norvegicus) (UniProt Q62968)" measurement_kind=inhibition unit_of_measure=% number=52

[I] O=C(NCCN1CCCCC1)c1ccc(-c2ccc(Cl)cc2)o1
[II] O=C(c1ccc(-c2ccc(Cl)cc2)o1)N1CCNCC1
Problem: Looking at I and II , which one comes out lower in inhibition terms? // return label of chosen record
Result: II
